Please provide measured binding affinity for the entries that follow.
Target: T1, human MASP-3 (construct not stated) (human)
T1 construct: also called MASP-3 antigen
T1 chain: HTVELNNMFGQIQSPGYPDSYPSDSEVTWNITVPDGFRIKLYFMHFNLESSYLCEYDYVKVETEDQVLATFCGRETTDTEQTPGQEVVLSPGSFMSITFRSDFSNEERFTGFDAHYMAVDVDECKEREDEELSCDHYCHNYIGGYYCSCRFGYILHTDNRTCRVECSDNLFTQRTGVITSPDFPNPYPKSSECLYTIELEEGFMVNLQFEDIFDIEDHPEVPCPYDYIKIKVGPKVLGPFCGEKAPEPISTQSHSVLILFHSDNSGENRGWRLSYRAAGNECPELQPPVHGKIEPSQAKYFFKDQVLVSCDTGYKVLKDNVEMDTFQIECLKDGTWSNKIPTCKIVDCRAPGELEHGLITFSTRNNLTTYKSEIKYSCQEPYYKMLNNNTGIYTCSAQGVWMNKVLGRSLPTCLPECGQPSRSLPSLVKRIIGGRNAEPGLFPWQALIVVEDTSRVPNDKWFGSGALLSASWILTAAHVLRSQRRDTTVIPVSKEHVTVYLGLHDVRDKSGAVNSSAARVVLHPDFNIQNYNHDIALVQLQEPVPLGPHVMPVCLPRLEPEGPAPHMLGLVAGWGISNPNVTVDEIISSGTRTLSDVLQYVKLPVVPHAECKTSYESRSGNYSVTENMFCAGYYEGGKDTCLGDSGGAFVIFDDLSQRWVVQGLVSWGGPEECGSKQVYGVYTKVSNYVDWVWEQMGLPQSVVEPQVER
Assay: not described at this place

get_value(item= MASP-3 mAb 2F5 (mouse-human chimeric IgG4) (antibody, V domains shown) VH: EVQLQQPGAELVKPGASVKMSCKASGYTFTSYWITWVKQRPGQGLEWIGDIYPGSGSTNYNEKFKSKATLTVDTSSSTAYMQLSSLTSEDSAVYYCARRRYYATAWFAYWGQGTLVTVSS VL: DIVMTQSQKFMSTSVGDRVSITCKASQNVGTAVAWYQQKPGQSPKLLISSASNRYTGVPDRFTGSGSGTDFTLTISNMQSEDVADYFCQQYNSYPLTFGAGTKLELKR , readout=binding affinity) returns ≤ 500 pM

get_value(item= MASP-3 mAb 49C11 (mouse-human chimeric IgG4) (antibody, V domains shown) VH: EVQLQQSGPVLVKPGASGKMSCKASGYKFTDYYMIWVKQSHGKSLEWIGVIKIYNGGTSYNQKFKGKATLTVDKSSSTAYMELNSLTSEDSAVYYCARGPSLYDYDPYWYFDVWGTGTTVTVSS VL: DVLMTQTPLSLPVSLGDQASFSCRSSQSLIHSNGNTYLHWYLQKPGQSPKLLIYKVSNRFSGVPDRFSGSGSGTDFTLKISRVEAEDLGVYFCSQSTHVPWTFGGGTKLEIKR , readout=binding affinity) returns ≤ 500 pM

binding affinity reported for this binder MASP-3 mAb 13B1 (mouse-human chimeric IgG4) (antibody, V domains shown, also called mAb M3-1; M3-1) VH: QVQLKQSGAELMKPGASVKLSCKATGYTFTGKWIEWVKQRPGHGLEWIGEILPGTGSTNYNEKFKGKATFTADSSSNTAYMQLSSLTTEDSAMYYCLRSEDVWGTGTTVTVSS VL: DIVMTQSPSSLAVSAGEKVTMSCKSSQSLLNSRTRKNYLAWYQQKPGQSPKLLIYWASTRESGVPDRFTGSGSGTDFTLTISSVQAEDLAVYYCKQSYNIPTFGGGTKLEIKR : ≤ 500 pM
